Molecular target: X-box-binding protein 1 (Homo sapiens)
Test: ATG_Xbp1_CIS: Attagene CIS-FACTORIAL HepG2 Assay for human X-box Binding Protein 1 (XBP1) (AID 2282972)
Conditions: HepG2 XBP1 cis-element reporter, Attagene multiplex; actives raise or lower the signal
Active and inactive are the calls of the source. Rule for the calls: active = hit-call score of the fitted dose curve at least 0.9, where 1 is the maximum; inactive = score below 0.9.
Outcome codes: active, inactive

molecule | className
CNC(=S)NN | inactive
CCCCCCCCCCCCCCCC[N+](C)(C)CC | inactive
OCCc1ccncc1 | inactive
CC(=O)OCC(=O)[C@@]12N=C(C)O[C@@H]1C[C@H]1[C@@H]3CCC4=CC(=O)C=C[C@]4(C)[C@H]3[C@@H](O)C[C@@]12C | inactive
COc1c2ccoc2cc2oc(=O)ccc12 | inactive
CC(=O)c1ccc[nH]1 | inactive
c1ccc2c(c1)ccc1ncccc12 | inactive
O=C1CCCN1CCO | inactive
CCN(CC)c1ccc(C(=O)c2ccccc2C(=O)O)c(O)c1 | inactive
c1cc(C(c2ccc(OCC3CO3)cc2)C(c2ccc(OCC3CO3)cc2)c2ccc(OCC3CO3)cc2)ccc1OCC1CO1 (stereo unspecified) | active
COc1ccc([C@@H]2CC(=O)c3c(O)cc(O[C@@H]4O[C@H](CO[C@@H]5O[C@@H](C)[C@H](O)[C@@H](O)[C@H]5O)[C@@H](O)[C@H](O)[C@H]4O)cc3O2)cc1OC | inactive

---

Biological target: Myc proto-oncogene protein (Homo sapiens) (UniProt P01106)
Sequence (P01106 whole entry, looked up): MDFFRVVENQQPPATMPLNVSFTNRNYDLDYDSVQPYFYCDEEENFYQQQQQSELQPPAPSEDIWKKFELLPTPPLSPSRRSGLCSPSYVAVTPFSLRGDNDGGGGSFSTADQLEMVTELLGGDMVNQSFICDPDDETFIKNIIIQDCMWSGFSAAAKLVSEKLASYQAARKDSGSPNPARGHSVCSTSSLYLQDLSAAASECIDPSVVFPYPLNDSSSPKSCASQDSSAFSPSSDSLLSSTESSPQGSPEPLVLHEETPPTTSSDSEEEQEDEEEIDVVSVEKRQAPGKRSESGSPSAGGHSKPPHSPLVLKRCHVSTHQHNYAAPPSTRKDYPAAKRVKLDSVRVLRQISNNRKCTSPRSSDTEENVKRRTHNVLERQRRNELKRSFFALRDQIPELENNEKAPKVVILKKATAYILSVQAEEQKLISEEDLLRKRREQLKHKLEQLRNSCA
Experiment: ATG_Myc_CIS: Attagene CIS-FACTORIAL HepG2 Assay for human Myelocytomatosis (Myc) Proto-Oncogene Transcription Factor (AID 2282990)
Conditions: HepG2, Attagene cis-reporter transcription factor activity; actives raise or lower the signal
Active and inactive are the calls of the source. The calls were made as follows: active = hit-call score of the fitted dose curve at least 0.9, where 1 is the maximum; inactive = score below 0.9.
Outcome codes: active, inactive

compound | className
c1ccc2c(c1)ccc1ncccc12 | active
c1ccc2c(c1)ccc1cc3c(ccc4ccccc43)cc12 | inactive
CO[Si](OC)(OC)c1ccccc1 | inactive
O=C1c2cccc(O)c2C(=O)c2c(O)cc(CO)cc21 | inactive
NC(=O)OCC(COC(N)=O)c1ccccc1 | inactive
O=Nc1ccc(O)cc1 | inactive
CN(C)CCCN(C)C | inactive
Cc1ccc([N+](=O)[O-])cc1S(=O)(=O)O | active
CC(C)(C)c1ccc(OC(=O)c2ccccc2O)cc1 | inactive
CC(=O)OCC(C)OC(C)=O (stereo not given) | inactive
CC(=O)c1ccc[nH]1 | inactive
Nc1ccc(Cl)cc1Cl | inactive
CC(C)c1ccc2cc(C(C)C)ccc2c1 | inactive
NC(CO)(CO)CO | inactive
COC(=O)/C=C\C(=O)O | inactive

---

Target: Hepatocyte nuclear factor 3-beta (Homo sapiens)
Experiment: ATG_FoxA2_CIS: Attagene CIS-FACTORIAL HepG2 Assay for human Forkhead box A2 (FOXA2) (AID 2282942)
Conditions: HepG2 cis-reporter transcription factor activity, 24 h; actives raise or lower the signal
Activity calls are given as the source filed them. The calls were made as follows: active = hit-call score of the fitted dose curve at least 0.9, where 1 is the maximum; inactive = score below 0.9.
recordedEndpoint: outcome

compound | recordedEndpoint | valueObserved
CCCOCCOCCOCCO | outcome | inactive
O=C(Nc1ccccc1)c1ccccc1O | outcome | inactive
CCC(C)OC(=O)c1ccc(O)cc1 (stereo not drawn) | outcome | inactive
OC1CCCC1 | outcome | inactive
CC(CC=O)CCCC(C)(C)O (stereo not drawn) | outcome | inactive
CCC(=O)Oc1ccc(/C(CC)=C(\CC)c2ccc(OC(=O)CC)cc2)cc1 | outcome | inactive
CCCCC(CC)CCC(CC(C)C)OS(=O)(=O)O (stereo not drawn) | outcome | inactive
Cc1cc(O)c(Cl)c(C)c1Cl | outcome | inactive
